molecules and their reported IC50
- study system: human MOGAT-2 (Homo sapiens)
- Sequence (Q3SYC2 whole entry): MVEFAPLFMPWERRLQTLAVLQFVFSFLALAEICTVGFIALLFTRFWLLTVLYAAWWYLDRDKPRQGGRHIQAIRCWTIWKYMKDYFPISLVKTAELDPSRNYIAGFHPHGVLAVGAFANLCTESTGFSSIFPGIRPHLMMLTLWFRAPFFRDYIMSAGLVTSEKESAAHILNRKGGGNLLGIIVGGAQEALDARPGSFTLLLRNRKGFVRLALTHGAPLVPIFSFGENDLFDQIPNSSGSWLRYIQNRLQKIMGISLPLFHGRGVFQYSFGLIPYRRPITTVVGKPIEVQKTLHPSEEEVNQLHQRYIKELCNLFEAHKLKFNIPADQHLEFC
- assay info: Inhibitory Activity in MOGAT-2 Cell Assay (Caco-2 cells stably transfected with human MOGAT-2, HDG substrate, LC-MS)
- Assay type: cell-based
- Set-up: expressed in transfected cells
- condition set: Caco-2 cells expressing human MOGAT-2, HDG/DOPC, 4 hours; read-out: IC50 nM (Std Dev., n*)
Counter-ions that a name gives are not always drawn.
Your answer should be a plain number; it is taken to be in nM.

Examples with answers:
COC[C@H](CNCc1ccc([C@H](NS(C)(=O)=O)C(F)(F)F)cc1)Oc1ccc(F)cn1.Cl [Example 1, hydrochloride]: 30.6
C[C@H](CNCc1ccc([C@H](NS(C)(=O)=O)C(F)(F)F)cc1)Oc1ccc(F)cn1.Cl [Example 36, hydrochloride]: 36.1
CS(=O)(=O)N[C@@H](c1ccc(CNCCOc2ccc(F)cn2)cc1)C(F)(F)F [Example 17, hydrochloride]: 45.5
C[C@H](CNCc1ccc([C@H](NS(C)(=O)=O)C(F)(F)F)cc1)Oc1ccccn1 [Example 3, hydrochloride]: 14.4

Q: // IC50 lookup, key: COC[C@H](CNCc1ccc([C@H](NS(C)(=O)=O)C(F)(F)F)cc1)Oc1ccccn1
A: 44.6
